molecular target: CD36 (Rattus norvegicus, UniProt Q07969); construct: the rat cardiac membranes (200 μg) as source of CD36; from tissue; host or cells: Sprague Dawley rat heart (cardiac membranes); experiment: Competitive covalent CD36 binding assay using photoactivatable [125I]-Tyr-Bpa-Ala-Hexarelin; conditions: displacement of [125I]-Tyr-Bpa-Ala-Hexarelin; rat cardiac membranes
Sequence (Q07969 whole entry): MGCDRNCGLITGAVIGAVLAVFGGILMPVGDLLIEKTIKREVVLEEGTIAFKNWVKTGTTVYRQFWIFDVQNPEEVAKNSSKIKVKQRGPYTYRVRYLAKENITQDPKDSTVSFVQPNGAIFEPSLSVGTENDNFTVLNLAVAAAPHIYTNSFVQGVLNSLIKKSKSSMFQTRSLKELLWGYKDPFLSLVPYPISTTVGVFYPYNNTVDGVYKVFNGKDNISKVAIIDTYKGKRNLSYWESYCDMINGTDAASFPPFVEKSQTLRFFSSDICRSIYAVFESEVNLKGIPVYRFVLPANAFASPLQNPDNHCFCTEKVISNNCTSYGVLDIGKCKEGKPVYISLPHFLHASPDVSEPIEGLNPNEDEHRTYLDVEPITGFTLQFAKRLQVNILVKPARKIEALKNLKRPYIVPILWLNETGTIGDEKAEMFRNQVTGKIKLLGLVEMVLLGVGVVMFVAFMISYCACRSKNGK
pIC50: −log10 of the molar value. Where a SMILES comes first, the peptide text is derived from it. [ ]: non-standard residue; d: D form. The star is where a group is joined. X3 = N[C@@H]1CCN([C@H](Cc2c[nH]c3ccccc23)C(=O)*)C1=O
Measured Endpoint: pIC50

Compound: C[C@H](NC(=O)[C@@H](Cc1c[nH]c2ccccc12)N1CC[C@@H](N)C1=O)C(=O)N[C@@H](Cc1c[nH]c2ccccc12)C(=O)N[C@H](Cc1ccccc1)C(=O)N[C@@H](CCCCN)C(N)=O [Compound 60, (R)-Agl-D-Trp-Ala-Trp-D-Phe-Lys-NH2] (X3-AW[dF]K-NH2)
pIC50: 5.06

(I) NCCCC[C@H](NC(=O)[C@H](Cc1ccccc1)NC(=O)[C@H](Cc1c[nH]c2ccccc12)N1CC[C@H](NC(=O)[C@@H](Cc2c[nH]c3ccccc23)NC(=O)[C@@H](N)Cc2c[nH]cn2)C1=O)C(N)=O [Compound 46, His-D-Trp-(S)-Agl-Trp-D-Phe-Lys-NH2]
(II) NCCCC[C@H](NC(=O)[C@H](Cc1ccccc1)NC(=O)[C@H](Cc1c[nH]c2ccccc12)N1CC[C@@H](NC(=O)[C@@H](Cc2c[nH]c3ccccc23)NC(=O)[C@@H](N)Cc2c[nH]cn2)C1=O)C(N)=O [Compound 62, His-D-Trp-(R)-Agl-Trp-D-Phe-Lys-NH2]
# input For this pair, I and II , which shows a numerically higher pIC50? Returns: label corresponding to the selected item.
# output I
(I: 5.13, II: 4.76)

###

target: CD36 (Rattus norvegicus); construct: the rat cardiac membranes (200 μg) as source of CD36; experiment: Competitive covalent CD36 binding assay using photoactivatable [125I]-Tyr-Bpa-Ala-Hexarelin; conditions: displacement of [125I]-Tyr-Bpa-Ala-Hexarelin; rat cardiac membranes
*1 amine or outer side, *2 acyl side, *3 side chain or, on linkers, in order; H or OH if unused. Where a SMILES comes first, the peptide text is derived from it. [ ]: non-standard residue; d: D form. The star is where a group is joined. X5 = O=C1C[C@@H](N[*:1])CN1[C@H](Cc1ccccc1)C(=O)[*:2]; X4 = N[C@H]1CCN([C@H](Cc2c[nH]c3ccccc23)C(=O)*)C1=O; X1 = NCCCC[C@@H](C(N)=O)N1C[C@@H](N*)CC1=O; X2 = NCCCC[C@@H](C(N)=O)N1CC[C@H](N*)C1=O
Measured IC50, listed per entry for reference.
Answer format: numeric, µM implied, no suffix.

Below, 4 molecules whose answers are already recorded.
Molecule: C[C@@H](C(=O)N[C@@H](Cc1c[nH]c2ccccc12)C(=O)N[C@H](Cc1ccccc1)C(=O)N[C@@H](CCCCN)C(N)=O)N1CC[C@H](NC(=O)[C@@H](N)Cc2c[nH]cn2)C1=O [Compound 45, His-(S)-Agl-Ala-Trp-D-Phe-Lys-NH2]
Unit Of Measurement: µM
Readout Number: 13.4
//
Molecule: C[C@H](NC(=O)[C@@H](Cc1c[nH]c2ccccc12)NC(=O)[C@@H](N)Cc1c[nH]cn1)C(=O)N[C@@H]1CC(=O)N([C@H](Cc2ccccc2)C(=O)N[C@@H](CCCCN)C(N)=O)C1 [Compound 69, His-D-Trp-Ala-(R)-Bgl-D-Phe-Lys-NH2] (H-H[dW]A[X5]K-NH2)
Unit Of Measurement: µM
Readout Number: 53.5
//
Molecule: C[C@H](NC(=O)[C@@H](Cc1c[nH]c2ccccc12)NC(=O)[C@@H](N)Cc1c[nH]cn1)C(=O)N[C@@H](Cc1c[nH]c2ccccc12)C(=O)N[C@H]1CC(=O)N([C@@H](CCCCN)C(N)=O)C1 [Compound 53, His-D-Trp-Ala-Trp-(S)-Bgl-Lys-NH2] (H-H[dW]AW-X1)
Unit Of Measurement: µM
Readout Number: 26.5
//
Molecule: C[C@H](NC(=O)[C@@H](Cc1c[nH]c2ccccc12)NC(=O)[C@@H](N)Cc1c[nH]cn1)C(=O)N[C@@H](Cc1c[nH]c2ccccc12)C(=O)N[C@H]1CCN([C@@H](CCCCN)C(N)=O)C1=O [Compound 48, His-D-Trp-Ala-Trp-(S)-Agl-Lys-NH2] (H-H[dW]AW-X2)
Unit Of Measurement: µM
Readout Number: 21.4

Proceeding to the next molecule to report its IC50.
The reported value for C[C@H](NC(=O)[C@@H](Cc1c[nH]c2ccccc12)N1CC[C@H](N)C1=O)C(=O)N[C@@H](Cc1c[nH]c2ccccc12)C(=O)N[C@H](Cc1ccccc1)C(=O)N[C@@H](CCCCN)C(N)=O [Compound 44, (S)-Agl-D-Trp-Ala-Trp-D-Phe-Lys-NH2] (X4-AW[dF]K-NH2) in terms of IC50 is 14.5

###

molecular target: GHS-R1a receptor (Homo sapiens); experiment: GHS-R1a receptor competitive binding assay with 125I-Ghrelin; settings: competition with 125I-Ghrelin; GHS-R1a transiently transfected in LLC-PK1 cells
Sequence (Q92847 whole entry): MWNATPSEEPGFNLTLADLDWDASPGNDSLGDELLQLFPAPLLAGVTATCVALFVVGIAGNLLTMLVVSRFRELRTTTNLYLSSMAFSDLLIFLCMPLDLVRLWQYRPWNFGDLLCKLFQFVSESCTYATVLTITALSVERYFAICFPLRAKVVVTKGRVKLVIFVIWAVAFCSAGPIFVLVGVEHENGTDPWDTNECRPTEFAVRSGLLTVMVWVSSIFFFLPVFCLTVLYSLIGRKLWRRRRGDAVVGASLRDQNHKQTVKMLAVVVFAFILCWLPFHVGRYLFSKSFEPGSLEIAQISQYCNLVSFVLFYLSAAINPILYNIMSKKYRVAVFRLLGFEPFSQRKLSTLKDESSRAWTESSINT
Where a SMILES comes first, the peptide text is derived from it. [ ]: non-standard residue; d: D form. The star is where a group is joined. X4 = N[C@H]1CCN([C@H](Cc2c[nH]c3ccccc23)C(=O)*)C1=O; X1 = NCCCC[C@@H](C(N)=O)N1C[C@@H](N*)CC1=O
Here the recorded IC50 is given for each entry.
Give a bare numeral; the unit µM is implied.

Molecule: C[C@H](NC(=O)[C@@H](Cc1c[nH]c2ccccc12)N1CC[C@H](N)C1=O)C(=O)N[C@@H](Cc1c[nH]c2ccccc12)C(=O)N[C@H](Cc1ccccc1)C(=O)N[C@@H](CCCCN)C(N)=O [Compound 44, (S)-Agl-D-Trp-Ala-Trp-D-Phe-Lys-NH2] (X4-AW[dF]K-NH2)
IC50 (µM): 0.0409

Attention now shifts to the item below.
Just so you know, measured IC50 for C[C@H](NC(=O)[C@@H](Cc1c[nH]c2ccccc12)NC(=O)[C@@H](N)Cc1c[nH]cn1)C(=O)N[C@@H](Cc1c[nH]c2ccccc12)C(=O)N[C@H]1CC(=O)N([C@@H](CCCCN)C(N)=O)C1 [Compound 53, His-D-Trp-Ala-Trp-(S)-Bgl-Lys-NH2] (H-H[dW]AW-X1) came out at 24.5

###

Target: CD36 (Rattus norvegicus)
Construct: the rat cardiac membranes (200 μg) as source of CD36
Assay: Competitive covalent CD36 binding assay using photoactivatable [125I]-Tyr-Bpa-Ala-Hexarelin
Details: displacement of [125I]-Tyr-Bpa-Ala-Hexarelin; rat cardiac membranes
Procedure: Animal use was in accordance with the Institutional Animal Ethics Committee and the Canadian Council on Animal Care guidelines for the use of experimental animals. Sprague Dawley (275-350 g) rats were anaesthetized with sodium pentobarbital and their hearts were promptly removed in ice-cold saline and the cardiac membranes were prepared according to Harigaya and Schwartz.^lxvi Nonspecific binding was defined as binding not displaced by 50 μM peptide. […]
pIC50: −log10 of the molar value. Where a SMILES comes first, the peptide text is derived from it. [ ]: non-standard residue; d: D form. The star is where a group is joined. X7 = N[C@H]1CC(=O)N([C@H](Cc2c[nH]c3ccccc23)C(=O)*)C1; X6 = NCCCC[C@@H](C(N)=O)N1CC[C@@H](N*)C1=O
Measured Endpoint: pIC50

Sample answers from the record:
Compound: C[C@H](NC(=O)[C@@H](Cc1c[nH]c2ccccc12)NC(=O)[C@@H](N)Cc1c[nH]cn1)C(=O)N[C@@H](Cc1c[nH]c2ccccc12)C(=O)N[C@@H]1CCN([C@@H](CCCCN)C(N)=O)C1=O [Compound 64, His-D-Trp-Ala-Trp-(R)-Agl-Lys-NH2] (H-H[dW]AW-X6)
Measured Endpoint: pIC50
Result: 4.42
//
Compound: C[C@@H](C(=O)NCN[C@@H](Cc1c[nH]c2ccccc12)C(=O)N[C@H](Cc1ccccc1)C(=O)N[C@@H](CCCCN)C(N)=O)N1C[C@@H](NC(=O)[C@@H](N)Cc2c[nH]cn2)CC1=O [Compound 50, His-(S)-Bgl-Ala-Trp-D-Phe-Lys-NH2]
Measured Endpoint: pIC50
Result: < 5.00

Now for another entry.
According to the records, this compound C[C@H](NC(=O)[C@@H](Cc1c[nH]c2ccccc12)N1C[C@@H](N)CC1=O)C(=O)N[C@@H](Cc1c[nH]c2ccccc12)C(=O)N[C@H](Cc1ccccc1)C(=O)N[C@@H](CCCCN)C(N)=O [Compound 49, (S)-Bgl-D-Trp-Ala-Trp-D-Phe-Lys-NH2] (X7-AW[dF]K-NH2) displays pIC50 of < 5.00
